Taken from PubChem BioAssay (NCI).

Experiment: NCI Yeast Anticancer Drug Screen. Data for the sgs1 mgt1 strain (AID 161);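 also: 0% = growth of cultures given vehicle only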
Conditions: S. cerevisiae sgs1 mgt1 strain, at 50.0 µM
The panel holds about 79,000 compounds, 15% with a hit somewhere; the sample as a whole holds those more often. Activity calls are given as the source filed them. Rule as the data show it: active = growth inhibition above about 70%; inactive = the rest.
Outcomes you can answer with include only these: 1 (yes) (active), 0 (no) (inactive)

1) S=c1sc2ccccc2n1CNc1ccccc1	1 (yes)
2) COc1ccc(/C=C(\C(=O)c2ccc(O)cc2)c2ccccc2)cc1OC	1 (yes)
3) C/C(=N/NC(=S)Nc1cccc(C)c1)c1ccccn1	1 (yes)
4) Cc1cc(N)c(C)c2c1[nH]c1ccc(Br)cc12	1 (yes)
5) CN1CCC(CCC(=O)OC(C)(C)C)(CN2c3ccccc3Sc3ccccc32)C1 (stereo unspecified)	1 (yes)

Problem: For `CC(C)NCC=C=Nc1ccccc1` , what call appears in the results of this test?
Solution: 0 (no)

Problem: For `[Cl][Pt+2][Cl].[NH-]CC1(C[NH-])CCCC1` , what call appears in the results of this test?
Solution: 0 (no)

* * *

Each entry below carries its reported growth inhibition.
Experiment: NCI Yeast Anticancer Drug Screen. Data for the sgs1 mgt1 strain (AID 161);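 also: 0% = growth of cultures given vehicle only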
Conditions: S. cerevisiae sgs1 mgt1 strain, at 50.0 µM, stronger effect = higher value
The panel holds about 79,000 compounds, 15% with a hit somewhere; the sample as a whole holds those more often.
State the answer as a number, implicitly in %.

Below: 2 compounds and their reported growth inhibition.
1) [Cl][Sn]([CH2][CH2][Sn]([Cl])([c]1ccccc1)[c]1ccccc1)([c]1ccccc1)[c]1ccccc1	95.2
2) CC(=O)SC1C(=O)N(C)C(SC(C)=O)C(=O)N1C (stereo not drawn)	96.6

Kindly consider the entry below.
Problem: Which growth inhibition is reported for this compound? `CCc1nc(N)nc(N)c1-c1ccc(NCCc2ccccc2)c([N+](=O)[O-])c1`
Solution: 5.15

* * *

Test: NCI Yeast Anticancer Drug Screen. Data for the sgs1 mgt1 strain (AID 161);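 also: 0% = growth of cultures given vehicle only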
Conditions: S. cerevisiae sgs1 mgt1 strain, at 50.0 µM, stronger effect = higher value
This is part of a sample that, as a whole, favours compounds with a hit. Of some 79,000 tested, about 15% had one in any assay.
Each entry below carries its reported growth inhibition.
State the answer as a number, implicitly in %.

Below: 4 molecules and their reported growth inhibition.
1. CC(C)S(=O)(=O)ON1C(=O)c2ccc(N(C)C)cc2C1=O	61.3
2. CCC1(CC)COC(C)(C(=O)O)OC1	-2.95
3. O=S(=O)(CC(Br)CCl)c1ccccc1 (centres undefined)	40.5
4. C/C(CC(O)(C(F)(F)F)C(F)(F)F)=N/Nc1ccc([N+](=O)[O-])cc1[N+](=O)[O-]	99.5

Problem: Which growth inhibition is reported for this molecule? O=C1c2ccccc2C(O)(c2ccccc2)c2c(Cl)cccc21 (centres undefined)
Solution: 80.8

Problem: Which growth inhibition is reported for this molecule? CC(C)(CCCCC(C)(C)NCC1COc2ccccc2O1)NCC1COc2ccccc2O1 (centres undefined)
Solution: 96.8

Problem: Which growth inhibition is reported for this molecule? CC(=O)Nc1ccc(C(=O)C(C)Br)cc1 (centres undefined)
Solution: 80.5

Problem: Which growth inhibition is reported for this molecule? `COc1ccccc1NC(=O)/C(=C/n1c(=S)sc2ccccc21)C(C)=O`
Solution: 63.6

Problem: Which growth inhibition is reported for this molecule? `COc1ccc(-n2cc(-c3ccc(Cl)cc3)c3c(N)ncnc32)cc1`
Solution: 98.2
